Source of measurements: PubChem BioAssay AID330

Test system: P388 leukemia ip, CD2F1 mice, survival T/C
protocol-notes: NCI In Vivo Anticancer Drug Screen. Data for tumor model P388 Leukemia (intraperitoneal) in CD2F1 (CDF1) mice
test-parameters: endpoint: median survival time; dose: 50.0 mg/kg/injection; schedule: Q01DX001 (ip); vehicle: Klucel (hydroxypropylcellulose) (HPC); higher = longer survival
Toxic doses and inconclusive results are not listed.
readout-name: T/C

Worked cases, answers included:
Req: Request the reported T/C associated with COC(=O)CCCCCCCCCCCCCCCCCCCCCCCCCCCCCCCCC(=O)OC
Resp: 88 % of control

Req: Which T/C value belongs to COC(=O)c1ccccc1N=Nc1ccc(N(CCCl)CCCl)cc1 ?
Resp: 112 % of control

Req: What value of T/C has been reported for the following molecule? C=C1C(=O)OC2/C=C(\C)CC/C=C(\C)CC(OC(=O)/C(=C/C)CO)C12 (stereo not given)
Resp: 96 % of control

Req: What does the record list as T/C for Clc1cccc2nn3ccnc3n12 ?
Resp: 105 % of control

New cases:
Req: Which measured T/C value corresponds to O=C(/C=C/C1N=C1c1ccccc1)c1ccccc1 (stereo not given) ?
Resp: 107 % of control

----------
Below, each entry is listed alongside its reported T/C.
Tested on: P388 leukemia ip, CD2F1 mice, survival T/C
protocol-notes: NCI In Vivo Anticancer Drug Screen. Data for tumor model P388 Leukemia (intraperitoneal) in CD2F1 (CDF1) mice
test-parameters: endpoint: median survival time; dose: 100.0 mg/kg/injection; schedule: Q04DX003 (ip); vehicle: saline with Tween-80; higher = longer survival
Inconclusive results and toxic doses are left out.

Req: # T/C lookup, item S=c1nc[nH]c2c1ncn2C1CCCCO1 (stereo not drawn)
Resp: 91 % of control

---
Req: Reported T/C for CC(C)Cn1cnc2c(=S)nc(N)[nH]c21 : what is it?
Resp: 109 % of control

Req: Reported T/C for CN(C)c1nc(OC2C(C3COC(C)(C)O3)OC3OC(C)(C)OC32)nc(N(C)C)n1 (stereo not drawn) : what is it?
Resp: 99 % of control

----------
Each entry below carries its reported T/C.
Tested on: P388 leukemia ip, CD2F1 mice, survival T/C
protocol-notes: NCI In Vivo Anticancer Drug Screen. Data for tumor model P388 Leukemia (intraperitoneal) in CD2F1 (CDF1) mice
test-parameters: endpoint: median survival time; dose: 200.0 mg/kg/injection; schedule: Q01DX009 (ip); vehicle: saline with Tween-80; higher = longer survival
Inconclusive results and toxic doses are left out.

Worked examples follow.
Req: Kindly state the measured T/C obtained for CC1=NN(C(=O)c2ccncc2)C(=O)C1N=Nc1ccccc1C (configuration not stated) with P388 leukemia ip, CD2F1 mice, survival T/C.
Resp: 94 % of control

Req: Give P388 leukemia ip, CD2F1 mice, survival T/C T/C for C/C=C(\C)C(=O)OC1CC(C)(O)C(=O)C(OC(=O)/C(C)=C/C)C2(C)CCC(O)(C(C)C)C12 (configuration not stated)
Resp: 100 % of control

Req: Form: Entry = CC(C)(C)N=C(CC(=NC(C)(C)C)Nc1ccccc1Cl)Nc1ccccc1Cl | System = P388 leukemia ip, CD2F1 mice, survival T/C | T/C = ____
Resp: 86 % of control

Req: Short answer please: T/C, P388 leukemia ip, CD2F1 mice, survival T/C, entry CC1CC(C)(C)N=C(C2(c3ccccc3)CC2)O1 (configuration not stated)
Resp: 100 % of control

More entries:
Req: Provide value of T/C for this record tested with P388 leukemia ip, CD2F1 mice, survival T/C: CC(=O)c1cc(C)[nH]c1C
Resp: 113 % of control

Req: Tell me reported T/C for O=C(NC1CC(c2ccccc2)(c2ccccc2)OC1=O)OCc1ccccc1 (configuration not stated) , tested with P388 leukemia ip, CD2F1 mice, survival T/C.
Resp: 93 % of control

Req: // map O=C(c1ccccc1)N1OC2C=CC1CC2 (configuration not stated) to recorded T/C (system: P388 leukemia ip, CD2F1 mice, survival T/C)
Resp: 109 % of control

----------
Tested on: P388 leukemia ip, CD2F1 mice, survival T/C
protocol-notes: NCI In Vivo Anticancer Drug Screen. Data for tumor model P388 Leukemia (intraperitoneal) in CD2F1 (CDF1) mice
test-parameters: endpoint: median survival time; dose: 100.0 mg/kg/injection; schedule: Q01DX009 (ip); vehicle: saline with Tween-80; higher = longer survival
Inconclusive results and toxic doses are left out.
readout-name: T/C

Req: Look up T/C: CN(C)CCCNCCCCNCCCN(C)C
Resp: 110 % of control

Req: Consider the compound shown here: O=C(CBr)Nc1c(Cl)cc(Br)cc1Br What is its recorded T/C?
Resp: 104 % of control

Req: Query (compound): CSc1cc(SC)c(SC)nn1 ; field requested: T/C
Resp: 109 % of control

Req: I would be grateful if you could share the reported T/C for CCOCC1COc2c(cc3[nH]cc(C(=O)OCC)c(=O)c3c2Cl)O1 (stereo unspecified) (tested in a mixture with another compound) .
Resp: 99 % of control

Req: Query: T/C; subject: O=S(=O)(Oc1cccc2ccccc12)C(F)(F)C(F)(F)C(F)(F)C(F)(F)F
Resp: 108 % of control

Okay, next one:
Req: Requested read-out: T/C. Entry: CC1(C(=O)O)CCCC2(C)C3=C(CCCC3)CCC12 (stereo unspecified)
Resp: 104 % of control

----------
# T/C listing for each entry below
System: P388 leukemia ip, CD2F1 mice, survival T/C
protocol-notes: NCI In Vivo Anticancer Drug Screen. Data for tumor model P388 Leukemia (intraperitoneal) in CD2F1 (CDF1) mice
test-parameters: endpoint: median survival time; dose: 400.0 mg/kg/injection; schedule: Q04DX002 (ip); vehicle: Klucel (hydroxypropylcellulose) (HPC); higher = longer survival
Toxic doses and inconclusive results are not listed.

Req: Fill in the recorded T/C for this compound, with P388 leukemia ip, CD2F1 mice, survival T/C as test system: O=C1C(Cl)=C(Cl)C(=O)N1c1ccc(Br)cc1Br
Resp: 100 % of control

Others:
Req: Find T/C (P388 leukemia ip, CD2F1 mice, survival T/C) for the entry Cn1c(=O)c2nc(-c3cccc([N+](=O)[O-])c3)cnc2n(C)c1=O
Resp: 100 % of control

Req: # get_value(readout= T/C, system= P388 leukemia ip, CD2F1 mice, survival T/C) for COC(=O)n1oc2ccccc2c1=O
Resp: 101 % of control

Req: // fetch P388 leukemia ip, CD2F1 mice, survival T/C T/C for CC(=O)Nc1ccc(S(=O)(=O)Oc2noc3ccc(Cl)cc23)cc1
Resp: 93 % of control

Req: State its T/C on P388 leukemia ip, CD2F1 mice, survival T/C: COc1ccc(C2=C(Cl)C(=O)N(c3ccc(OC)cc3OC)C(=O)C2(Cl)Cl)cc1
Resp: 117 % of control

Req: Provide the documented T/C with P388 leukemia ip, CD2F1 mice, survival T/C as the system for COc1ccc(NS(=O)(=O)c2ccc(NCc3c4ccccc4nc4ccccc34)cc2)nn1
Resp: 93 % of control

----------
Tested on: P388 leukemia ip, CD2F1 mice, survival T/C
protocol-notes: NCI In Vivo Anticancer Drug Screen. Data for tumor model P388 Leukemia (intraperitoneal) in CD2F1 (CDF1) mice
test-parameters: endpoint: median survival time; dose: 200.0 mg/kg/injection; schedule: Q01DX001 (ip); vehicle: saline with Tween-80; higher = longer survival
Toxic doses and inconclusive results are not listed.
As shown below, each of these compounds has a reported T/C value.

Req: Query: T/C; subject: Cc1ccc(C2N(CCN3C(=O)CS(=O)(=O)C3c3ccc(C)s3)C(=O)CS2(=O)=O)s1 (stereo not given)
Resp: 94 % of control

Req: Quick one: T/C of Nc1cccc(OCCOc2cccc(S(=O)(=O)F)c2)c1 ?
Resp: 100 % of control

Req: Give the measured T/C of Cc1ccc(NC(=O)CCC(=O)NS(C)(=O)=O)cc1 .
Resp: 94 % of control

More entries:
Req: Would you mind telling me what T/C value was observed for C=CC(C)C(O)C(=O)OC (stereo not given) ?
Resp: 110 % of control

Req: // query T/C value for entry O=c1[nH]c(Cl)nc2n[nH]c(Br)c12
Resp: 103 % of control

Req: Fill blank: measured T/C of the compound CC(C)C(/C=C/c1ccccc1)=N\NS(=O)(=O)c1ccccc1 is ____.
Resp: 98 % of control

Req: Suppose we examine the compound O=C(NC12OC3CC(CC(C3)O1)O2)NC12OC3CC(CC(C3)O1)O2 ; what T/C value has been reported?
Resp: 100 % of control

Req: Reported T/C for CC(C)(C)NC(=O)c1ccc2c(n1)C(=O)N(C(C)(C)C)C2=S : what is it?
Resp: 94 % of control

Req: I am curious: what T/C value has been reported for Nc1cc2ccccc2c(Br)n1 ?
Resp: 95 % of control

Req: Fill in: T/C of C=CCSc1nc(N)nc(Nc2ccccc2)n1 is ___
Resp: 92 % of control

Req: What does the record list as T/C for Cc1c([N+](=O)[O-])c(=O)oc2c(C)c3occc(=O)c3cc12 ?
Resp: 90 % of control

Req: Value lookup for T/C; key = COc1nnnc2c1sc1ccccc12
Resp: 104 % of control
